Origin of values: paper PMC13480645

target: SARS-CoV-2 S-2P protein (SARS-CoV-2, ancestral (Wuhan-Hu-1) …, UniProt P0DTC2, stabilised); assay: BLI; settings: both partners purified
Endpoint Label: Kd (pM)
Answers are plain numbers, in pM.

Entry eCC65.1-9 (antibody, V domains shown) VH: VQLVQSGAEVKKPGASVKVSCKASGYDFTSQYMHWVRQAPGQGLEWMGIIDPEGGGTSYAQKFRDRVSMTRDTPTSTVYMELRSLRSEDTAVYYCASLWFEKPSWRDYWGQGTLVTVSS VL: VMTQSPGTLSLSPGERATLSCRASQTVTSNYLAWYQQKPGQAPRLLIYHASSRATGIPDRFSGSGSGTDFTLTISRLEPEDFAVYYCQQYGSKPPLFTFGPGTKLEIK ; Kd = 10.2
